- condition: Crystal; DTA
Normal melting temperature of 3 °C or higher: y. Under 3 °C: n.

{"compoundStructure": "CC(C)CCn1cc[n+](C)c1.O=S(=O)([N-]S(=O)(=O)C(F)(F)F)C(F)(F)F", "classLabel": "n"}
{"compoundStructure": "CCCCCC[n+]1ccn(C)c1.O=S(=O)([N-]S(=O)(=O)C(F)(F)F)C(F)(F)F", "classLabel": "n"}
{"compoundStructure": "CC(C)CCCCn1cc[n+](C)c1.O=S(=O)([N-]S(=O)(=O)C(F)(F)F)C(F)(F)F", "classLabel": "y"}
{"compoundStructure": "CCCC[n+]1ccn(C)c1.O=S(=O)([N-]S(=O)(=O)C(F)(F)F)C(F)(F)F", "classLabel": "n"}
{"compoundStructure": "CC(C)CCCn1cc[n+](C)c1.O=S(=O)([N-]S(=O)(=O)C(F)(F)F)C(F)(F)F", "classLabel": "y"}
{"compoundStructure": "CC(C)Cn1cc[n+](C)c1.O=S(=O)([N-]S(=O)(=O)C(F)(F)F)C(F)(F)F", "classLabel": "n"}
{"compoundStructure": "CCCCCCCn1cc[n+](C)c1.O=S(=O)([N-]S(=O)(=O)C(F)(F)F)C(F)(F)F", "classLabel": "n"}
{"compoundStructure": "CC(C)[n+]1ccn(C)c1.O=S(=O)([N-]S(=O)(=O)C(F)(F)F)C(F)(F)F", "classLabel": "y"}

###

Property: mass density; scope: individual compounds
- condition: 283.15 K; 101.33 kPa; Liquid; Vibrating tube method
Numbers after ± are expanded uncertainties.

{"compoundStructure": "CC(C)CCCn1cc[n+](C)c1.O=S(=O)([N-]S(=O)(=O)C(F)(F)F)C(F)(F)F", "mass density": "1385.9 ± 1 kg/m3"}
{"compoundStructure": "CC(C)Cn1cc[n+](C)c1.O=S(=O)([N-]S(=O)(=O)C(F)(F)F)C(F)(F)F", "mass density": "1450.3 ± 1 kg/m3"}
{"compoundStructure": "CCCn1cc[n+](C)c1.O=S(=O)([N-]S(=O)(=O)C(F)(F)F)C(F)(F)F", "mass density": "1490.2 ± 1 kg/m3"}
{"compoundStructure": "CC(C)CCn1cc[n+](C)c1.O=S(=O)([N-]S(=O)(=O)C(F)(F)F)C(F)(F)F", "mass density": "1417.5 ± 1 kg/m3"}
{"compoundStructure": "CCCC[n+]1ccn(C)c1.O=S(=O)([N-]S(=O)(=O)C(F)(F)F)C(F)(F)F", "mass density": "1451.2 ± 1 kg/m3"}
{"compoundStructure": "CCCCCCCn1cc[n+](C)c1.O=S(=O)([N-]S(=O)(=O)C(F)(F)F)C(F)(F)F", "mass density": "1358.4 ± 1 kg/m3"}
{"compoundStructure": "CCCCCn1cc[n+](C)c1.O=S(=O)([N-]S(=O)(=O)C(F)(F)F)C(F)(F)F", "mass density": "1417.5 ± 1 kg/m3"}
{"compoundStructure": "CC(C)CCCCn1cc[n+](C)c1.O=S(=O)([N-]S(=O)(=O)C(F)(F)F)C(F)(F)F", "mass density": "1357.5 ± 1 kg/m3"}
{"compoundStructure": "CC(C)[n+]1ccn(C)c1.O=S(=O)([N-]S(=O)(=O)C(F)(F)F)C(F)(F)F", "mass density": "1492.2 ± 1 kg/m3"}
{"compoundStructure": "CCCCCC[n+]1ccn(C)c1.O=S(=O)([N-]S(=O)(=O)C(F)(F)F)C(F)(F)F", "mass density": "1386.1 ± 1 kg/m3"}

###

- condition: 298.15 K; 101.33 kPa; Liquid; Concentric cylinders viscometry

{"compoundStructure": "CC(C)CCCn1cc[n+](C)c1.O=S(=O)([N-]S(=O)(=O)C(F)(F)F)C(F)(F)F", "viscosity (mPa·s)": 85}
{"compoundStructure": "CC(C)[n+]1ccn(C)c1.O=S(=O)([N-]S(=O)(=O)C(F)(F)F)C(F)(F)F", "viscosity (mPa·s)": 48}
{"compoundStructure": "CCCn1cc[n+](C)c1.O=S(=O)([N-]S(=O)(=O)C(F)(F)F)C(F)(F)F", "viscosity (mPa·s)": 43}
{"compoundStructure": "CCCCCCCn1cc[n+](C)c1.O=S(=O)([N-]S(=O)(=O)C(F)(F)F)C(F)(F)F", "viscosity (mPa·s)": 82}
{"compoundStructure": "CC(C)CCn1cc[n+](C)c1.O=S(=O)([N-]S(=O)(=O)C(F)(F)F)C(F)(F)F", "viscosity (mPa·s)": 69}

###

- procedureText: Molar enthalpy of transition or fusion
- condition: Crystal; DSC
Property: Molar enthalpy of transition or fusion; scope: individual compounds
measuredEndpoint: Molar enthalpy of transition or fusion (kcal/mol)

{"compoundStructure": "CC(C)CCn1cc[n+](C)c1.O=S(=O)([N-]S(=O)(=O)C(F)(F)F)C(F)(F)F", "measuredEndpoint": "Molar enthalpy of transition or fusion", "measured": 0.0239}
{"compoundStructure": "CC(C)CCCn1cc[n+](C)c1.O=S(=O)([N-]S(=O)(=O)C(F)(F)F)C(F)(F)F", "measuredEndpoint": "Molar enthalpy of transition or fusion", "measured": 0.0239}
{"compoundStructure": "CCCCCCCn1cc[n+](C)c1.O=S(=O)([N-]S(=O)(=O)C(F)(F)F)C(F)(F)F", "measuredEndpoint": "Molar enthalpy of transition or fusion", "measured": 0.0956}
{"compoundStructure": "CC(C)Cn1cc[n+](C)c1.O=S(=O)([N-]S(=O)(=O)C(F)(F)F)C(F)(F)F", "measuredEndpoint": "Molar enthalpy of transition or fusion", "measured": 1.63}
{"compoundStructure": "CC(C)CCCCn1cc[n+](C)c1.O=S(=O)([N-]S(=O)(=O)C(F)(F)F)C(F)(F)F", "measuredEndpoint": "Molar enthalpy of transition or fusion", "measured": 0.12}
{"compoundStructure": "CCCCCC[n+]1ccn(C)c1.O=S(=O)([N-]S(=O)(=O)C(F)(F)F)C(F)(F)F", "measuredEndpoint": "Molar enthalpy of transition or fusion", "measured": 1.65}
{"compoundStructure": "CCCC[n+]1ccn(C)c1.O=S(=O)([N-]S(=O)(=O)C(F)(F)F)C(F)(F)F", "measuredEndpoint": "Molar enthalpy of transition or fusion", "measured": 5.76}
{"compoundStructure": "CC(C)[n+]1ccn(C)c1.O=S(=O)([N-]S(=O)(=O)C(F)(F)F)C(F)(F)F", "measuredEndpoint": "Molar enthalpy of transition or fusion", "measured": 5.71}

###

- condition: 303.15 K; 101.33 kPa; Liquid; Vibrating tube method
± gives the expanded uncertainty stated by the source.
Property: mass density; scope: individual molecules
measuredEndpoint: mass density

{"compoundStructure": "CC(C)CCCCn1cc[n+](C)c1.O=S(=O)([N-]S(=O)(=O)C(F)(F)F)C(F)(F)F", "measured": "1339.8 ± 1 kg/m3"}
{"compoundStructure": "CC(C)CCCn1cc[n+](C)c1.O=S(=O)([N-]S(=O)(=O)C(F)(F)F)C(F)(F)F", "measured": "1367.9 ± 1 kg/m3"}
{"compoundStructure": "CC(C)CCn1cc[n+](C)c1.O=S(=O)([N-]S(=O)(=O)C(F)(F)F)C(F)(F)F", "measured": "1398.5 ± 1 kg/m3"}
{"compoundStructure": "CCCCCC[n+]1ccn(C)c1.O=S(=O)([N-]S(=O)(=O)C(F)(F)F)C(F)(F)F", "measured": "1368.3 ± 1 kg/m3"}
{"compoundStructure": "CC(C)[n+]1ccn(C)c1.O=S(=O)([N-]S(=O)(=O)C(F)(F)F)C(F)(F)F", "measured": "1472.8 ± 1 kg/m3"}
{"compoundStructure": "CCCCCn1cc[n+](C)c1.O=S(=O)([N-]S(=O)(=O)C(F)(F)F)C(F)(F)F", "measured": "1399 ± 1 kg/m3"}
{"compoundStructure": "CCCCCCCn1cc[n+](C)c1.O=S(=O)([N-]S(=O)(=O)C(F)(F)F)C(F)(F)F", "measured": "1341 ± 1 kg/m3"}
{"compoundStructure": "CCCC[n+]1ccn(C)c1.O=S(=O)([N-]S(=O)(=O)C(F)(F)F)C(F)(F)F", "measured": "1432.1 ± 1 kg/m3"}
{"compoundStructure": "CC(C)Cn1cc[n+](C)c1.O=S(=O)([N-]S(=O)(=O)C(F)(F)F)C(F)(F)F", "measured": "1431.6 ± 1 kg/m3"}
{"compoundStructure": "CCCn1cc[n+](C)c1.O=S(=O)([N-]S(=O)(=O)C(F)(F)F)C(F)(F)F", "measured": "1470.8 ± 1 kg/m3"}

###

- condition: 288.15 K; 101.33 kPa; Liquid; Concentric cylinders viscometry
Property: viscosity; scope: individual compounds
measuredEndpoint: viscosity (mPa·s)

{"compoundStructure": "CCCCCCCn1cc[n+](C)c1.O=S(=O)([N-]S(=O)(=O)C(F)(F)F)C(F)(F)F", "measured": 132}
{"compoundStructure": "CC(C)[n+]1ccn(C)c1.O=S(=O)([N-]S(=O)(=O)C(F)(F)F)C(F)(F)F", "measured": 75}
{"compoundStructure": "CC(C)CCn1cc[n+](C)c1.O=S(=O)([N-]S(=O)(=O)C(F)(F)F)C(F)(F)F", "measured": 112}
{"compoundStructure": "CCCn1cc[n+](C)c1.O=S(=O)([N-]S(=O)(=O)C(F)(F)F)C(F)(F)F", "measured": 64}
{"compoundStructure": "CC(C)CCCn1cc[n+](C)c1.O=S(=O)([N-]S(=O)(=O)C(F)(F)F)C(F)(F)F", "measured": 137}
